Measured values drawn from patent US8134015B2 for this set.

biological target: rat NaPi-2b (Rattus norvegicus); assay: Sodium-dependent phosphate uptake of Xenopus oocytes which expressed NaPi-2b (32P); conditions: Xenopus oocytes expressing rat NaPi-2b, 32P radioactive phosphorus; read-out: IC50 (phosphate uptake inhibitory activity)
Sequence (Q9JJ09 whole entry): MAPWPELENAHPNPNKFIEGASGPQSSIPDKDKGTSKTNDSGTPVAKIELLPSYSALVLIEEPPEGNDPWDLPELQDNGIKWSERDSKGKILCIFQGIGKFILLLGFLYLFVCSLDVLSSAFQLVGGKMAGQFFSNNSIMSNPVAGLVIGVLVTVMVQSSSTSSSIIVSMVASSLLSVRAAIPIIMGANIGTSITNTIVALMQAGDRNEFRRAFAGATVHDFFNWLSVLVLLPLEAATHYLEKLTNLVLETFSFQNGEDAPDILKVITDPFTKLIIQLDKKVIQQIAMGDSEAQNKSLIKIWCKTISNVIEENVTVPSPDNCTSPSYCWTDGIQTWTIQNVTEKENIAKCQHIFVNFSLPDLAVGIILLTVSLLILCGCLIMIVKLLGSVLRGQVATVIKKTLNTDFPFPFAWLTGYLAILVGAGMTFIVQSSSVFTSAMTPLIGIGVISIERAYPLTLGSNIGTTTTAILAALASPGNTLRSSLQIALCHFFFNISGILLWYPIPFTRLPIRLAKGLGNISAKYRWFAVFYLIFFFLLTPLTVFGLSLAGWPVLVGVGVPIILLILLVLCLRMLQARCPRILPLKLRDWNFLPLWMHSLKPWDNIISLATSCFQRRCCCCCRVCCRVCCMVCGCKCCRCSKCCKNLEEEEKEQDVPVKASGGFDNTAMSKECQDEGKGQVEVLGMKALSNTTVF
measurement label: pIC50
Hey, just a heads up that pIC50 is the negative log base 10 of the concentration in molar.

Worked examples, 3 molecules total:
COc1ccc(C(=O)Nc2cc(Cl)ccc2C(=O)N/N=C/c2cccc(C)c2)cc1OC ... 5.76
CC(O)CN(Cc1cccc(C(=O)Nc2ncccc2C(=O)N/N=C/c2ccc(Cl)c(C(F)(F)F)c2)c1)CC(C)O (stereo not shown) ... 5.18
COc1ccc(C(=O)Nc2ccccc2C(=O)N/N=C/c2ccc(C)c(C)c2)cc1 ... 5.25

Incoming: // fetch rat NaPi-2b (Rattus norvegicus) pIC50 for "Cc1csc(NC(=O)c2cccc(CN3CCN(c4ncccn4)CC3)c2)c1C(=O)N/N=C/c1cccc(F)c1"
Outgoing: 5.41
